All values here come from the Human Domainome abundance scans (Beltran et al. 2025).

B1: F-BAR and double SH3 domains protein 1, residues 467 to 528; numbered along this chain, Q86WN1 (parent)
chain: RALPCPAHVVFRYQAGREDELTITEGEWLEVIEEGDADEWVKARNQHGEVGFVPERYLNFPD

# Variants of: B1
# assay_remarks: abundance fitness (aPCA) (normalised: wild type 0, dead -1); higher = more abundant; growth selection in yeast, the domain comes from the species named
# experimental_conditions: Homo sapiens
Is abundance fitness at least 0.04? Then satisfied. If not, not satisfied.

Q. Answer whether abundance fitness of V41F is greater than or equal to 0.04.
A. not satisfied

Q. Answer whether abundance fitness of E39H is greater than or equal to 0.04.
A. satisfied

Q. Answer whether abundance fitness of G16C is greater than or equal to 0.04.
A. not satisfied

Q. Answer whether abundance fitness of V10M is greater than or equal to 0.04.
A. not satisfied

Q. Answer whether abundance fitness of A43T is greater than or equal to 0.04.
A. not satisfied
